- Tested on: UACC-62
- assaySummary: Cytotoxicity against human UACC62 cells after 48 hrs by MTT assay
- Format: functional, cell-based
- conditionDescription: UACC-62, 48 h
measuredEndpoint: pIC50
Units for pIC50: none; it is -log10 of a concentration expressed in mol/L.

compound	pIC50
Cc1ccc(S(=O)(=O)N2CC2(C)CO[C@@H]2O[C@@H]3CO[C@H](c4ccccc4)O[C@@H]3[C@H](OCc3ccccc3)[C@H]2OCc2ccccc2)cc1 (some centres not stated)	3.71

Turning now to a further record.
Could you share which pIC50 value was measured for O=c1[nH]cc(F)c(=O)[nH]1 [FLUOROURACIL] ?
3.58

====

- assaySummary: Cytotoxicity against human MCF10 cells assessed as cell survival at 264 uM after 48 hrs by MTT assay
- Format: cell-based
- conditionDescription: read-out: Survival
measuredEndpoint: viability at 48 h, 264 µM
# output: numeric value plus its unit

Value lookup for viability at 48 h, 264 µM; key = Cc1ccc(S(=O)(=O)N2CC2(C)CO[C@@H]2O[C@@H]3CO[C@H](c4ccccc4)O[C@@H]3[C@H](OCc3ccccc3)[C@H]2OCc2ccccc2)cc1 (stereo partly specified)
80%
